Consider the following variants and their measured folding stability dG readings.
B1: HEEH_KT_rd6_0790 (parent)
chain: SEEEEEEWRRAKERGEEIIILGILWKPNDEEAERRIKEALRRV

Variants of: B1
TEST_PROTOCOL: folding stability dG (cDNA display proteolysis); higher = more stable
APPLIED_CONDITIONS: PBS, room temperature
READOUT_KIND: folding stability dG (kcal/mol)

> print(dat)
     var          readout.kind  number
 1  R42H  folding stability dG    1.79
 2   R9N  folding stability dG    1.85
 3   E2L  folding stability dG     2.5
 4  R42A  folding stability dG    2.11
 5  K26I  folding stability dG    2.02
 6   E4K  folding stability dG    1.92
 7  D29S  folding stability dG    1.42
 8  L21T  folding stability dG    1.04
 9  L24A  folding stability dG    1.53
10  E33M  folding stability dG     1.7
11   W8F  folding stability dG    2.31
12  R35W  folding stability dG    1.56
13  L21Q  folding stability dG    1.84
14  E38M  folding stability dG    1.47
15  L21I  folding stability dG    1.47
16  K37Y  folding stability dG    2.08
17  L21A  folding stability dG    1.84
18  E30L  folding stability dG    2.28
19  E30D  folding stability dG    2.25
20  E33P  folding stability dG   0.529
21  R42F  folding stability dG    1.77
22  D29F  folding stability dG    1.28
23  W25Q  folding stability dG   0.568
24  E38D  folding stability dG    2.06
25  W25T  folding stability dG   0.615
26  E17V  folding stability dG    2.08
27  R42Q  folding stability dG    2.09
28  R34E  folding stability dG    2.12
29  E13N  folding stability dG    1.69
30  R41C  folding stability dG    2.43
31  G22K  folding stability dG   0.815
32  L21F  folding stability dG    1.97
33   E2I  folding stability dG    2.44
34  A32S  folding stability dG    1.96
35   W8T  folding stability dG   0.835
36   E6W  folding stability dG    2.09
37  G22Q  folding stability dG    1.15
38  A39M  folding stability dG     2.1
39  R41Q  folding stability dG    1.92
40  N28Y  folding stability dG     1.9
41  E30K  folding stability dG    1.93
42   E2K  folding stability dG    2.19
43  E16R  folding stability dG    1.66
44  K12V  folding stability dG    1.89
45  D29A  folding stability dG    1.25
46  I36E  folding stability dG   0.641
